molecular target: full-length elephant shark GR (Callorhinchus milii, UniProt V9KGN8); experiment: luciferase reporter transactivation, HEK293 cells; assay type: cell-based
Sequence (V9KGN8 1-704): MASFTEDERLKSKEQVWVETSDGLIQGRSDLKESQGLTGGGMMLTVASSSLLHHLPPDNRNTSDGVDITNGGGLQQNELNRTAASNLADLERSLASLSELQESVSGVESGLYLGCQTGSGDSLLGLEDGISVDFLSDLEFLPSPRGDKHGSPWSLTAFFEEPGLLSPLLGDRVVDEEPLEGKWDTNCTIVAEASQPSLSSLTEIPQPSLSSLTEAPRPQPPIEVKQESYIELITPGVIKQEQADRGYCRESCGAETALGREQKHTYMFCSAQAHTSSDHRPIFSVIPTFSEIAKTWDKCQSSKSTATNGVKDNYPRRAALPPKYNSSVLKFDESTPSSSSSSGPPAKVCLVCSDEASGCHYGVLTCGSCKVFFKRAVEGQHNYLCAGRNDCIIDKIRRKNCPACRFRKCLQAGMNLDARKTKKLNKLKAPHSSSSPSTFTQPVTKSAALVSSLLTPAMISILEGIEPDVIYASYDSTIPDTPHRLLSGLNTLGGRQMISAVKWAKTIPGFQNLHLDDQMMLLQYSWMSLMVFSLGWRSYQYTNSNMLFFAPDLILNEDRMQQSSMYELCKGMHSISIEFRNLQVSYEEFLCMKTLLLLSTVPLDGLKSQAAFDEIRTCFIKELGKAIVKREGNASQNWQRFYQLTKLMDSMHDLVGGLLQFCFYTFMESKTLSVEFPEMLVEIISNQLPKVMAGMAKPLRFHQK
ASSAY ENDPOINT: pEC50
Please keep in mind that pEC50 is minus log10 of the molar concentration; only the number is needed.

Query: Report pEC50 for CC#C[C@]1(O)CC[C@H]2[C@@H]3CCC4=CC(=O)CCC4=C3[C@@H](c3ccc(N(C)C)cc3)C[C@@]21C please.
Result: 8.06
